B1: PiggyBac transposable element-derived protein 1 (Homo sapiens), Q96JS3 (parent)
chain: MYEALPGPAPENEDGLVKVKEEDPTWEQVCNSQEGSSHTQEICRLRFRHFCYQEAHGPQEALAQLRELCHQWLRPEMHTKEQIMELLVLEQFLTILPKELQPCVKTYPLESGEEAVTVLENLETGSGDTGQQASVYIQGQDMHPMVAEYQGVSLECQSLQLLPGITTLKCEPPQRPQGNPQEVSGPVPHGSAHLQEKNPRDKAVVPVFNPVRSQTLVKTEEETAQAVAAEKWSHLSLTRRNLCGNSAQETVMSLSPMTEEIVTKDRLFKAKQETSEEMEQSGEASGKPNRECAPQIPCSTPIATERTVAHLNTLKDRHPGDLWARMHISSLEYAAGDITRKGRKKDKARVSELLQGLSFSGDSDVEKDNEPEIQPAQKKLKVSCFPEKSWTKRDIKPNFPSWSALDSGLLNLKSEKLNPVELFELFFDDETFNLIVNETNNYASQKNVSLEVTVQEMRCVFGVLLLSGFMRHPRREMYWEVSDTDQNLVRDAIRRDRFELIFSNLHFADNGHLDQKDKFTKLRPLIKQMNKNFLLYAPLEEYYCFDKSMCECFDSDQFLNGKPIRIGYKIWCGTTTQGYLVWFEPYQEESTMKVDEDPDLGLGGNLVMNFADVLLERGQYPYHLCFDSFFTSVKLLSALKKKGVRATGTIRENRTEKCPLMNVEHMKKMKRGYFDFRIEENNEIILCRWYGDGIISLCSNAVGIEPVNEVSCCDADNEEIPQISQPSIVKVYDECKEGVAKMDQIISKYRVRIRSKKWYSILVSYMIDVAMNNAWQLHRACNPGASLDPLDFRRFVAHFYLEHNAHLSD

variants of: B1; conditions: with znf24_human ZNF24, P17028
Sequence (P17028 whole entry): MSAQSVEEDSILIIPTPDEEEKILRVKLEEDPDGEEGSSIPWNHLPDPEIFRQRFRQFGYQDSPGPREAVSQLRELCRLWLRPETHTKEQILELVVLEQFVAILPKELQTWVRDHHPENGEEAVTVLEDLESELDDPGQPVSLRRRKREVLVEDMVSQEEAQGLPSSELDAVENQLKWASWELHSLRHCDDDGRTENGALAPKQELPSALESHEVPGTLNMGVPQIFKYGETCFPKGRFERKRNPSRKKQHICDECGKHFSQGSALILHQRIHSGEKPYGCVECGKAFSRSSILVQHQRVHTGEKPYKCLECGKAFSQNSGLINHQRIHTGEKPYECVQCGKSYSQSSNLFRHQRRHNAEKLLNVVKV
measuredAttribute: effect of a mutation on the interaction

# count of solved cases: 4
variantDescriptor: Q248E
effect of a mutation on the interaction: with no effect
//
variantDescriptor: I678V
effect of a mutation on the interaction: with no effect
//
variantDescriptor: H806D
effect of a mutation on the interaction: with no effect
//
variantDescriptor: G244E
effect of a mutation on the interaction: with no effect

Input P256L . Output effect of a mutation on the interaction: with no effect

Source of measurements: IntAct's records for PubMed 25910212
